Biological target: Human immunodeficiency virus type 1 protease (Human immunodeficiency virus 1)
Assay: Antiviral activity against ritonavir virus (HIV-1 mutated at 46I/63P/71V/82F/84V and resistant to ritonavir)
Format: functional
List of IC90 mutant/IC90 WT values.
Answer with the value's number alone.

Some entries whose results are on file:
>>> readout_value("O=C1N(Cc2cccc(-c3nc[nH]n3)c2)[C@H](Cc2ccccc2)[C@H](O)[C@@H](O)[C@@H](Cc2ccccc2)N1Cc1ccc2[nH]ncc2c1")
3.8
>>> readout_value("Nc1ccc(CN2C(=O)N(Cc3ccc4[nH]ncc4c3)[C@H](Cc3ccccc3)[C@H](O)[C@@H](O)[C@H]2Cc2ccccc2)cc1-n1cncn1")
9
>>> readout_value("O=C(Nc1ncc[nH]1)c1cccc(CN2C(=O)N(Cc3cccc(C(=O)Nc4ncc[nH]4)c3)[C@H](Cc3ccccc3)[C@H](O)[C@@H](O)[C@H]2Cc2ccccc2)c1")
0.2
>>> readout_value("O=C1N(Cc2ccc(CO)cc2)[C@H](Cc2ccccc2)[C@H](O)[C@@H](O)[C@@H](Cc2ccccc2)N1Cc1ccc(CO)cc1")
93
>>> readout_value("O=C(Cc1ccccn1)c1cccc(CN2C(=O)N(Cc3ccc4[nH]ncc4c3)[C@H](Cc3ccccc3)[C@H](O)[C@@H](O)[C@H]2Cc2ccccc2)c1")
10

Prompt line: Any idea what its IC90 mutant/IC90 WT is? The compound is O=C1N(Cc2cccc(NCc3nc4ccccc4s3)c2)[C@H](Cc2ccccc2)[C@H](O)[C@@H](O)[C@@H](Cc2ccccc2)N1Cc1ccc2[nH]ncc2c1
Response line: 25

Prompt line: Same thing, different compound: Nc1ccc(CN2C(=O)N(Cc3ccc4[nH]ncc4c3)[C@H](Cc3ccccc3)[C@H](O)[C@@H](O)[C@H]2Cc2ccccc2)cc1-c1cc[nH]n1
Response line: 2.1

Prompt line: Same thing, different compound: Nc1cccc(CN2C(=O)N(Cc3cccc(N)c3)[C@H](Cc3ccccc3)[C@H](O)[C@@H](O)[C@H]2Cc2ccccc2)c1
Response line: 49

These measurements were taken from ChEMBL document CHEMBL1131003.
